Assay: H460 mouse tumor PK
Assay type: in vivo, mice
Conditions: mouse, in vivo, 25 mg/kg, 25 mg/kg IV; 144 h; Animal ID 2; read-out: Conjugate 38 Conc. in H460 Mouse Tumor
experimentalReadout: concentration at 144 h (µM)
Write the value in µM as a bare number.

# input Which concentration at 144 h reading was recorded for the compound CCNC(=O)c1nnc(-c2cc(C(C)C)c(O)cc2O)n1-c1ccc(CN2CCN(C(=O)Cc3ccc(OC(=O)N4CCN(CCCOc5ccc6c(c5OC)N=C(NC(=O)c5cnc(N)nc5)N5CCN=C65)CC4)cc3)CC2)cc1 [Compound 38] ?
# output 3.61

---

# maps each entry to its Kd
Molecular target: HSP90α (Homo sapiens, UniProt P07900)
Construct: purchased
Assay: HSP90 binding, HSP90α Assay Kit (fluorescence polarization, labeled geldanamycin competition)
Settings: read-out: HSP90 Binding Kd
Method: The bindings of the conjugates to HSP90 were studied with the HSP90α Assay Kit. The HSP90α Assay Kit is designed for identification of HSP90α inhibitors using fluorescence polarization. The assay is based on the competition of fluorescently labeled geldanamycin for binding to purified recombinant HSP90α. […] The fluorescently labeled geldanamycin is incubated with a sample containing HSP90α enzyme to produce a change in fluorescent polarization that can then be measured using a fluorescence reader.
Record the value in nM, omitting the unit from your answer.

Use these answered entries as a reference point.
| molecule | number |
| --- | --- |
| CCNC(=O)c1nnc(-c2cc(C(C)C)c(O)cc2O)n1-c1ccc(C(=O)N2CCN(c3ccc(OC(=O)N4CCN(CCCOc5ccc6c(c5OC)N=C(NC(=O)c5cnc(N)nc5)N5CCN=C65)CC4)cc3)CC2)cc1 [Compound 29] | 1.03 |
| CCNC(=O)c1nnc(-c2cc(C(C)C)c(O)cc2O)n1-c1ccc(C(=O)N2CCN(Cc3ccc(OC(=O)N4CCN(CCCOc5ccc6c(c5OC)N=C(NC(=O)c5cnc(N)nc5)N5CCN=C65)CC4)c(C)c3)CC2)cc1 [Compound 33] | 1.03 |
| COc1c(OCCCN2CCN(C(=O)Oc3ccc(CC(=O)N4CCN(Cc5ccc(-n6c(O)nnc6-c6cc(C(C)C)c(O)cc6O)cc5)CC4)cc3)CC2)ccc2c1N=C(NC(=O)c1cnc(N)nc1)N1CCN=C21 [Compound 39] | 1.8 |

# input Fill in the blank: the reported Kd of CCNC(=O)c1nnc(-c2cc(C(C)C)c(O)cc2O)n1-c1ccc(C(=O)NCc2cc(C)c(OC(=O)N3CCN(CCCOc4ccc5c(c4OC)N=C(NC(=O)c4cnc(N)nc4)N4CCN=C54)CC3)c(C)c2)cc1 [Compound 34] is ____.
# output 1.37

---

Molecular target: HSP90α (Homo sapiens, UniProt P07900)
Construct: purchased
Assay: HSP90 binding, HSP90α Assay Kit (fluorescence polarization, labeled geldanamycin competition)
Details: read-out: HSP90 Binding Kd
Measured Kd of individual entries
Could you give me the number in nM? Just the number is fine.

Please review the following examples before continuing.
| smi | systemName | Kd, nM |
| --- | --- | --- |
| CCNC(=O)c1nnc(-c2cc(C(C)C)c(O)cc2O)n1-c1ccc(C(=O)N2CCN(Cc3ccc(OC(=O)N4CCN(CCCOc5ccc6c(c5OC)N=C(NC(=O)c5cnc(N)nc5)N5CCN=C65)CC4)cc3)CC2)cc1 | HSP90α (Homo sapiens, UniProt P07900) | 0.86 |
| CCNC(=O)c1nnc(-c2cc(C(C)C)c(O)cc2O)n1-c1ccc(CN2CCN(C(=O)c3ccc(OC(=O)N4CCN(CCCOc5ccc6c(c5OC)N=C(NC(=O)c5cnc(N)nc5)N5CCN=C65)CC4)cc3)CC2)cc1 | HSP90α (Homo sapiens, UniProt P07900) | 0.68 |

Kindly review the next compound as well.
# input Which Kd is reported for this compound? CCNC(=O)c1nnc(-c2cc(C(C)C)c(O)cc2O)n1-c1ccc(CN2CCC(C(=O)N3CCN(c4ccc(OC(=O)N5CCN(CCCOc6ccc7c(c6OC)N=C(NC(=O)c6cnc(N)nc6)N6CCN=C76)CC5)cc4)CC3)CC2)cc1
# output 1.38

---

Test system: NCI-H460 cells
Test: NCI-H460 tumor cell cytotoxicity assay (CellTiter-Glo)
Format: cell-based
Conditions: Homo sapiens, NCI-H460, 48 h, n = 2, read-out: H460 in vitro cytotoxicity
experimentalReadout: IC50 (nM)
# unit: nM | format: bare number

| smi | unitName | IC50 |
| --- | --- | --- |
| CCNC(=O)c1nnc(-c2cc(C(C)C)c(O)cc2O)n1-c1ccc(C(=O)NCCc2ccc(OC(=O)N(CCCOc3ccc4c(c3OC)N=C(NC(=O)c3cnc(N)nc3)N3CCN=C43)C(C)C)cc2)cc1 | nM | 147 |

# input Entry CCNC(=O)c1nnc(-c2cc(C(C)C)c(O)cc2O)n1-c1ccc(CN2CCN(C(=O)Cc3ccc(CC(=O)N(C)CCCOc4ccc5c(c4OC)N=C(NC(=O)c4cnc(N)nc4)N4CCN=C54)cc3)CC2)cc1 : reported IC50 = ?
# output 31

# input Given CCNC(=O)c1nnc(-c2cc(C(C)C)c(O)cc2O)n1-c1ccc(CN2CCN(C(=O)Cc3ccc(OC(=O)N4CCN(CCCOc5ccc6c(c5OC)N=C(NC(=O)c5cnc(N)nc5)N5CCN=C65)CC4)cc3)CC2)cc1 , state its recorded IC50.
# output 7.4

# input Please give the measured IC50 for this compound: CCNC(=O)c1nnc(-c2cc(C(C)C)c(O)cc2O)n1-c1ccc(C(=O)NCCc2ccc(OC(=O)N(C)CCCOc3ccc4c(c3OC)N=C(NC(=O)c3cnc(N)nc3)N3CCN=C43)cc2)cc1
# output 325

# input Please look up its IC50: COc1c(OCCCN2CCN(C(=O)Oc3ccc(CC(=O)N4CCC(CCn5ccc6cc(-n7c(O)nnc7-c7cc(C(C)C)c(O)cc7O)ccc65)CC4)cc3)CC2)ccc2c1N=C(NC(=O)c1cnc(N)nc1)N1CCN=C21
# output 56

---

Test: H460 mouse tumor PK
Type: in vivo, mice
Conditions: mouse, in vivo, 25 mg/kg, 25 mg/kg IV; 144 h; Mean; read-out: Conjugate 38 Conc. in H460 Mouse Tumor
Description: Conjugate and unconjugated payload accumulation at 96 and 144 h in H460 tumor-bearing mice. Conjugate 38 was dosed at 25 mg/kg intravenously.
experimentalReadout: concentration at 144 h (nM)
Respond numerically; units are nM and should not be typed.

# input concentration at 144 h lookup needed for CCNC(=O)c1nnc(-c2cc(C(C)C)c(O)cc2O)n1-c1ccc(CN2CCN(C(=O)Cc3ccc(OC(=O)N4CCN(CCCOc5ccc6c(c5OC)N=C(NC(=O)c5cnc(N)nc5)N5CCN=C65)CC4)cc3)CC2)cc1 , thanks.
# output 2010

---

Assay: H460 mouse tumor PK
Format: in vivo, mice
Conditions: mouse, in vivo, 25 mg/kg, 25 mg/kg IV; 96 h; Animal ID 3; read-out: Conjugate 38 Conc. in H460 Mouse Tumor
experimentalReadout: concentration at 96 h (µM)
State just the number; it will be interpreted in µM.

# input Given CCNC(=O)c1nnc(-c2cc(C(C)C)c(O)cc2O)n1-c1ccc(CN2CCN(C(=O)Cc3ccc(OC(=O)N4CCN(CCCOc5ccc6c(c5OC)N=C(NC(=O)c5cnc(N)nc5)N5CCN=C65)CC4)cc3)CC2)cc1 , state its recorded concentration at 96 h.
# output 6.25

---

Assay: H460 mouse tumor PK
Type: in vivo, mice
Details: mouse, in vivo, 25 mg/kg, 25 mg/kg IV; 96 h; Mean; read-out: Conjugate 38 Conc. in H460 Mouse Tumor
experimentalReadout: concentration at 96 h (µM)
# unit: µM | format: bare number

# input Look at this molecule and give its reported concentration at 96 h. CCNC(=O)c1nnc(-c2cc(C(C)C)c(O)cc2O)n1-c1ccc(CN2CCN(C(=O)Cc3ccc(OC(=O)N4CCN(CCCOc5ccc6c(c5OC)N=C(NC(=O)c5cnc(N)nc5)N5CCN=C65)CC4)cc3)CC2)cc1
# output 6.68
